Readings of protein stability index for the listed sequences
# run_description: protein stability index of a GFP-peptide fusion (GPS, HEK-293T) (PSI 1-6); higher = more stable;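 note: 24-mer peptide tiles fused after GFP, lentivirally expressed, FACS-sorted into six equal bins by GFP/DsRed ratio, decoded by Illumina sequencing, PSI is the read-weighted mean bin number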
# cond: treatment: DMSO; c terminus: a fixed tail appended
Form: value (number only, do not type unit).

Worked examples, 4 sequences total:
>>> recorded_result("NIYETGDVCISILHPPVDDPQSGE [CDC34]")
4.52
>>> recorded_result("LFFPEGTCSNKKALLKFKPGAFIA [LPCAT4]")
1.86
>>> recorded_result("IITSRILVDQVTGVSRGVGFIRFD [ELAVL3]")
2.42
>>> recorded_result("ADIISTVEFNHTGELLATGDKGGR [PPP2R2C]")
4.52

Item: HESEGGRTPLMKAARAGHVCTVQF [ANKRD17] | protein stability index: 2.71

The reported value for YSYVVSRPQPRGLLGWGYYLIMLP [FAF2] in terms of protein stability index is 2.89

For record AQVFPESPESESDHEHEEADLELS [GNAS] the listed protein stability index is 5.44

----------
# run_description: protein stability index of a GFP-peptide fusion (GPS, HEK-293T) (PSI 1-6); higher = more stable
# cond: treatment: DMSO; c terminus: a fixed tail appended
// reported protein stability index for each item listed
No unit in the answer, only the number.

Some entries whose results are on file:
>>> recorded_result("PGPQGSAGQRGEPGPKGDPGEKSH [EMID1]")
5.62
>>> recorded_result("DLDETLIHSHHDGVLRPTVRPGTP [CTDNEP1]")
4.53
>>> recorded_result("MAAGSEPESVEASPVVVEKSNSYP [KMT2E]")
5.3
>>> recorded_result("RIIPNFYPPLEGHVRQGVFSSLNH [INTS3]")
2.28

Please turn your attention to the following entry.
Note to self: protein stability index recorded for THQTQPGIRRARDKALSGGKRKET [NET1] was 4.79

----------
# run_description: protein stability index of a GFP-peptide fusion (GPS, HEK-293T) (PSI 1-6); higher = more stable
# cond: treatment: MLN4924 1 uM, 8 h; c terminus: a fixed tail appended
Mark 1 for reported protein stability index of 3 or greater; mark 0 for anything smaller.

>>> class_assignment("MPSKLFAGLVHVKQCIVAHPVNPP [CRYL1]")
0
>>> class_assignment("VMEIQKQIEKKEKKLHKIQNKAQR [TAF7L]")
1
>>> class_assignment("RYIHSMSLVHMDIKPSNIFISRTS [WEE1]")
0
>>> class_assignment("NSTSYSNYYRTWNVVVHDWLYYYA [SOAT1]")
0
>>> class_assignment("LFGHPGLDMELGPSQGQETNEVCE [ADAMTSL2]")
1
>>> class_assignment("AVNLSVSTLPSLREEEEQVRAHAP [KCNG1]")
1
>>> class_assignment("AMELKVEDPFYWVSPGVLVLLAVL [MOG]")
0
>>> class_assignment("LSSWELEAWYEDLQEVLSSDENGG [DDIT3]")
1
>>> class_assignment("YNQQQALIDQRYFQVLCSINSIIH [CEP70]")
0
>>> class_assignment("HTFKTRFTQPLLPAFTVWCGSFQV [FSD1]")
0

Is protein stability index for LYRTLFSVINNGHNQKVHMHMVDL [PDS5B] at or above 3?
0

Does the reported protein stability index for RPIGEFRSNADYQYQLLRCNVDLL [CNOT7] fall at or above the 3 mark?
0

----------
# run_description: protein stability index of a GFP-peptide fusion (GPS, HEK-293T) (PSI 1-6); higher = more stable
# cond: treatment: MLN4924 1 uM, 8 h; c terminus: a fixed tail appended
Category scheme (protein stability index): band A: < 3; band B: ≥ 3 and < 4; band C: ≥ 4

Looking at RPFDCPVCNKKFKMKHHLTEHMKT [ZBTB22] , which class would you pick?
band B

Pick a category. Item: LREIRMLKQLKHPNLVNLIEVFRR [CDKL4]
band A

Category of SKDWEEVVVESMEQDRIPEVHVPP [MIA2] , please.
band C

Band for the recorded protein stability index of DSYSSTQHVPEELDLSSSSQMSPL [ATF6] ?
band C

----------
# run_description: protein stability index of a GFP-peptide fusion (GPS, HEK-293T) (PSI 1-6); higher = more stable
# cond: treatment: MLN4924 1 uM, 8 h; c terminus: a fixed tail appended
Please use rule met whenever protein stability index is not below 4, and rule not met whenever it is.

>>> class_assignment("SPVSRNRLAQVKRKILVLDLDETL [CTDNEP1]")
"rule not met"
>>> class_assignment("EHICVNNGNSYICKCSEGFVLAED [MATN2]")
"rule met"
>>> class_assignment("PQGDEEDIASRYPTLWTEQVKSRQ [SMOC2]")
"rule met"

Dear colleague, could you confirm whether KECVSILPRKESPSVRSSKDGKLL [TNFSF13B] has protein stability index at or above 4?
rule met

protein stability index >= 4 for RRAGAACTLRQKLIFSPCSDCEEE [WEE1] ?
rule met

Does the reported protein stability index for ILKRTGQRYEHGRTLKSYLGLTNQ [ZNF649] fall at or above the 4 mark?
rule not met

Is the recorded value of protein stability index equal to or greater than 4 for this sequence? MASNERDAISWYQKKIGAYDQQIW [PHTF1]
rule not met

Please check the record RKISVNAKDEDQWTALHFAAQNGD [RIPK4] and state if its protein stability index is at or above 4.
rule met

Check the entry PCPSTTCCRACSVSFSTGAGGWSN [BET1L] : does protein stability index equal or exceed 4?
rule not met

Check the entry LEENELTSLAEDLLGLTDPNGGLA [TRADD] : does protein stability index equal or exceed 4?
rule met

Is protein stability index for ASFHHKLHHKRLAKECMLQEENKS [CBY2] at or above 4?
rule met

Could you verify whether the entry VFDAMFNGGMATTSAEIELPDVEP [BTBD1] shows protein stability index of no less than 4?
rule met

Does YLPPERIREKSRLFDTKHDVYSFA [RIPK4] have a reported protein stability index of at least 4?
rule not met

----------
# run_description: protein stability index of a GFP-peptide fusion (GPS, HEK-293T) (PSI 1-6); higher = more stable
# cond: treatment: DMSO; c terminus: a fixed tail appended
protein stability index: recorded values
// no unit string in output, number only

Worked set:
>>> recorded_result("TDLEMQIEGLKEELAYLRKNHEEE [KRT16]")
5.24
>>> recorded_result("TAPLTELLHSRNEGVATYAAAVLF [CTNNB1]")
2.25
>>> recorded_result("MPSTPGFVGYNPYSHLAYNNYRLG [SMARCE1]")
2.27
>>> recorded_result("NSAEACQYVITHAKVNILLVENDQ [ACSBG2]")
2.18
>>> recorded_result("SENARLVLQIDNAKLAADDFRTKY [KRT36]")
4.03

// field: protein stability index; key: PALCFAAAIFSLFFVPLSYLLMVT [TMEM175] ; value = 3.03

Recorded result, TAISSFTRHVFTCGRRGIKVWSLT [TLE6] , protein stability index: 2.15

protein stability index in this record for GSSETNLLQHLLEACGRCEEVPEA [PYCR3] : 3.74

----------
Listed below: protein stability index values for each entry.
# run_description: protein stability index of a GFP-peptide fusion (GPS, HEK-293T) (PSI 1-6); higher = more stable
# cond: treatment: MLN4924 1 uM, 8 h; c terminus: a fixed tail appended
Response field accepts a number only; no unit should be typed.

>>> recorded_result("QAMEEDLIVGLQGMDLNLEAEALA [HDAC6]")
4.92
>>> recorded_result("AAMFGGSFVESANSEVYLPNINKI [RHOBTB1]")
2.93
>>> recorded_result("PRNKTENGLTPKKKIQVNSKPSIQ [ATF6]")
3.96
>>> recorded_result("RIFAHKIYLSTSSSKFYDLFLMDL [RHOBTB2]")
2.86
>>> recorded_result("DSGGSDVDLDPTDGKLFPSDGFRD [ELF3]")
5.42
>>> recorded_result("QHYTETALDEIKLLKCVRESDPSD [SRPK2]")
4.92

Now look at this entry.
Per the record, SKQRKDFEGMAFLETEQGKPFVSV [GMCL1] has protein stability index of 3.27

----------
Consider the following sequences and their measured protein stability index readings.
# run_description: protein stability index of a GFP-peptide fusion (GPS, HEK-293T) (PSI 1-6); higher = more stable
# cond: treatment: DMSO; c terminus: a fixed tail appended

Example sequences with recorded protein stability index:
>>> recorded_result("LLMVRASRRSGKTSAVLKAGRQSV [C6orf223]")
2.63
>>> recorded_result("KPPYSYATLICMAMQASKATKITL [FOXJ1]")
2.78
>>> recorded_result("SSLLAPAKHLIASMLSKNPEDRPS [PLK2]")
3.2

The sequence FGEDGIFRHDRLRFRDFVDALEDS [PBXIP1] showed protein stability index equal to 3.29

protein stability index measured on SMSGGRFRCPTCRHEVIMDRHGVY [TRIM63] = 2.24

Entry PVPSAPVIDLAESLVADNCVTLVW [FSD1] ; protein stability index = 2.56

The reported value for LKLTVVEDVTVGRRQAVAWLVAMH [ZFYVE21] in terms of protein stability index is 3.15
